Test system: CCRF-CEM
assay_text: Antiproliferative activity against human CEM cells assessed as cell survival after 72 hrs by coulter counter analysis
Assay type: functional, cell-based
Listing of entries alongside the reported IC50.
Report only the number, with the unit µM understood.

>>> df
                                  structure  measurement_label  unit_tag  result_value
0  Cl.Cl.Cl.O=C1/C(=C/c2ccc(O)c(CN3CCOCC3)c2)CNC/C1=C\c1ccc(O)c(CN2CCOCC2)c1               IC50        µM          1.67
1  O=C1/C(=C/c2ccc(O)cc2)CCC/C1=C\c1ccc(O)cc1               IC50        µM          6.96

Proceeding to the next molecule to report its IC50.
Q: Form: Entry = O=C(/C=C/c1ccc(O)cc1)/C=C/c1ccc(O)cc1 | System = CCRF-CEM | IC50 = ____
Ans: 3.38
